# studySystem: UniProt:O95760
# Sequence (O95760 112-270 limits assumed): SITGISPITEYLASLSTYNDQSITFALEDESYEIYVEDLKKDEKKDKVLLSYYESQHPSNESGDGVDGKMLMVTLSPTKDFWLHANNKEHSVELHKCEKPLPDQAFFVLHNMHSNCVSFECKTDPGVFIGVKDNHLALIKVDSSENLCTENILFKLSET
# experimentalConditions: 30 µM;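 also: plate ELISA with coated Flag-tagged human IL-33 and His-tagged human ST2, bound ST2 detected by anti-His HRP and TMB absorbance at 450 nm, 2 h compound incubation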
Parameter: inhibition. Scope: all listed entries.
assayReadout: inhibition (%)

smilesRecord	assayReadout	experimentalValue
CN1CCN(CCNC(=O)c2nc(-c3cccc(Cl)c3)oc2-c2ccccc2)CC1	inhibition	31
CCOC(=O)c1nc(-c2ccc(C(F)(F)F)cc2)oc1-c1cccc(N(C(C)=O)C(C)=O)c1	inhibition	-14
CCOC(=O)N1CCN(C(=O)c2nc(-c3ccc(C(F)(F)F)cc3)oc2-c2ccccc2[N+](=O)[O-])CC1	inhibition	-30
CN(C)CCNC(=O)c1nc(-c2ccc([N+](=O)[O-])cc2)oc1-c1ccccc1	inhibition	-16
CCOC(=O)c1nc(-c2ccc(C(F)(F)F)cc2)oc1-c1cc(OC)c(OC)c(OC)c1	inhibition	-65
CCCNC(=O)c1nc(-c2ccc(C(F)(F)F)cc2)oc1-c1cccc(SC)c1	inhibition	110
CN(C)CCN1CCN(C(=O)c2nc(-c3cccc(C(F)(F)F)c3)oc2-c2ccccc2[N+](=O)[O-])CC1	inhibition	20
CN(C)CCNC(=O)c1nc(-c2ccccc2C(F)(F)F)oc1-c1ccccc1[N+](=O)[O-]	inhibition	-6
CC(=O)c1ccc(NC(=O)c2nc(-c3ccc(C(F)(F)F)cc3)oc2-c2ccccc2[N+](=O)[O-])cc1	inhibition	1
CC(=O)NCCNC(=O)c1nc(-c2ccc(C(F)(F)F)cc2)oc1-c1ccccc1[N+](=O)[O-]	inhibition	73
CCOC(=O)c1nc(-c2ccc(C(F)(F)F)cc2)oc1-c1ccccc1OC(F)(F)F	inhibition	115
CCOC(=O)c1nc(-c2ccc3ccccc3c2)oc1-c1ccccc1[N+](=O)[O-]	inhibition	20
CCOC(=O)c1nc(-c2cc(F)cc(F)c2)oc1-c1ccccc1	inhibition	12
CN1CCN(CCNC(=O)c2nc(-c3ccc4ccccc4c3)oc2-c2ccccc2)CC1	inhibition	35
O=C(NCCCN1CCOCC1)c1nc(-c2ccc(C(F)(F)F)cc2)oc1-c1ccccc1[N+](=O)[O-]	inhibition	22
O=C(c1nc(-c2ccc(C(F)(F)F)cc2)oc1-c1ccccc1[N+](=O)[O-])N1CCC(O)CC1	inhibition	-16
CCN(CC)CCNC(=O)c1nc(-c2ccc(C(C)(C)C)cc2)oc1-c1ccccc1[N+](=O)[O-]	inhibition	20
CC(C)N(CCN1CCN(C(=O)c2nc(-c3ccc(C(F)(F)F)cc3)oc2-c2ccccc2[N+](=O)[O-])CC1)C(C)C	inhibition	-24
CN(C)CCNC(=O)c1nc(-c2cccc(C(F)(F)F)c2)oc1-c1ccccc1[N+](=O)[O-]	inhibition	-22
CN1CCN(CCNC(=O)c2nc(-c3cccc(F)c3)oc2-c2ccccc2[N+](=O)[O-])CC1	inhibition	29
CN(C)CCNC(=O)c1nc(-c2ccc(F)c(F)c2)oc1-c1ccccc1	inhibition	-8
COc1cccc(-c2nc(C(=O)NCCN(C)C)c(-c3ccccc3[N+](=O)[O-])o2)c1	inhibition	-11
O=C(NCc1ccccc1)c1nc(-c2ccc(C(F)(F)F)cc2)oc1-c1ccccc1[N+](=O)[O-]	inhibition	9
CN(C)CCN1CCN(C(=O)c2coc(-c3ccc(C(F)(F)F)cc3)n2)CC1	inhibition	13
COc1ccc(-c2nc(C(=O)NCCN(C)C)c(-c3ccccc3)o2)cc1	inhibition	-26
CN1CCN(CCNC(=O)c2nc(-c3ccc(OC(F)(F)F)cc3)oc2-c2ccccc2)CC1	inhibition	1
CCN(CC)CCN1CCN(C(=O)c2nc(-c3ccc(C(F)(F)F)cc3)oc2-c2ccccc2[N+](=O)[O-])CC1	inhibition	0
CN(C)CCNC(=O)c1nc(-c2cccc(F)c2)oc1-c1ccccc1	inhibition	-2
CN1CCN(CCNC(=O)c2nc(-c3ccc(F)cc3)oc2-c2ccccc2[N+](=O)[O-])CC1	inhibition	-22
O=C(Nc1ccc(OCc2ccccc2)cc1)c1nc(-c2ccc(C(F)(F)F)cc2)oc1-c1ccccc1[N+](=O)[O-]	inhibition	10
CN(C)CCN1CCN(C(=O)c2nc(-c3ccc(Cl)cc3)oc2-c2ccccc2[N+](=O)[O-])CC1	inhibition	33
